The reported numbers originate from patent US10472324B2.

# assay system: human GABAA α3β3γ2 (Homo sapiens (Human), UniProt P18507+P28472+P34903)
# Sequence (P34903 29-492): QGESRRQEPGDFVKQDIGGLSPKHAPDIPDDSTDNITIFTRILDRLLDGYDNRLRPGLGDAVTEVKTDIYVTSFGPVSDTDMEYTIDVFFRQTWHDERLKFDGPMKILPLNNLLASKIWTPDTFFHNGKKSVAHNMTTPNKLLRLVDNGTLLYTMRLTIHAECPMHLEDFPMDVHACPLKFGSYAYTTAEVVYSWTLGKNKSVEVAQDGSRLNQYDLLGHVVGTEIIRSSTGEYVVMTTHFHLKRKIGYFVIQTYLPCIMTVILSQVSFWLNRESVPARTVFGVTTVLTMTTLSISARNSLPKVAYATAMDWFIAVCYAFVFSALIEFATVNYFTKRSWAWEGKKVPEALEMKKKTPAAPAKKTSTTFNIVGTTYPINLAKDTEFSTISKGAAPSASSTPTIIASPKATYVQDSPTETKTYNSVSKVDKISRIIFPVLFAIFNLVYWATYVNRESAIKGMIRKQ
# Sequence (P28472 26-473): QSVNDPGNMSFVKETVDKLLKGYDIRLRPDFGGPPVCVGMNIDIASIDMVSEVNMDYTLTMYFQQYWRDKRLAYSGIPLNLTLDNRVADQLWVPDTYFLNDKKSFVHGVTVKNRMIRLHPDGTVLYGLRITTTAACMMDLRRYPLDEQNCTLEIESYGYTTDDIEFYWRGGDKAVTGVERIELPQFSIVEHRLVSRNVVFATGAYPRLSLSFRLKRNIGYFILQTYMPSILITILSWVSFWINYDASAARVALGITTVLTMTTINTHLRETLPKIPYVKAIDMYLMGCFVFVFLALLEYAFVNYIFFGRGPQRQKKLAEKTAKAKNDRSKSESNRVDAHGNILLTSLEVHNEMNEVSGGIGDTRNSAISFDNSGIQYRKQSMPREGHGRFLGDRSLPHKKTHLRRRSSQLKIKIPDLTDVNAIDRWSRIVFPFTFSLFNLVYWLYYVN
# Sequence (P18507 40-475): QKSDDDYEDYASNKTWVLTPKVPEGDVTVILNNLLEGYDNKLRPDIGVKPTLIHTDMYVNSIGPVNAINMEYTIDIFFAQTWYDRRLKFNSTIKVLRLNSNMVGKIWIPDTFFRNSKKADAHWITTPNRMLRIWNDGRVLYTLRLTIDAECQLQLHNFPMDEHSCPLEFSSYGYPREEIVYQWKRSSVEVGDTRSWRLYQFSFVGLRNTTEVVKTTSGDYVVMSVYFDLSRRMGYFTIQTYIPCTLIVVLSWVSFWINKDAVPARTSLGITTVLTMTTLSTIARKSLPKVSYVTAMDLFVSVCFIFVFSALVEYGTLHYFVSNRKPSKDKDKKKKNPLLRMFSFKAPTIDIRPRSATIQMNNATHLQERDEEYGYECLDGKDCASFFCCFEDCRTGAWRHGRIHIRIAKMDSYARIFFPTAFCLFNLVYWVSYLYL
# experimental protocol: Patch clamp electrophysiology, positive modulation, HEK293 cells expressing GABAA α3β3γ2
# Type: cell-based
# details: 10 μM test compound; GABA EC20 current = 100%
Catalogue of GABAA α3β3γ2 normalized percent current readings, one per entry.
Record the value in %, omitting the unit from your answer.

// known answers, use as guide
1) N#CC(C(=S)Nc1ccc(SC(F)(F)F)cc1)=C(O)C1CC1 = 315
2) N#CC(C(=S)Nc1ccc(S(=O)(=O)C(F)(F)F)cc1)=C(O)C1CC1 = 328
3) Cc1cc(NC(=S)C(C#N)=C(O)C2CC2)ccc1C(F)(F)F = 697

Query Cc1cc(NC(=S)C(C#N)=C(O)C2CC2)ccc1C#N yields GABAA α3β3γ2 normalized percent current of 357

###

Catalogue of pIC50 readings, one per entry.
# assay system: GABA gated Cl-channel (GABA.A receptor complex)
# experimental protocol: GABAA receptor binding assay ([35S]TBPS radioligand)
# details: 3 nM [35S]TBPS, rat cerebral cortex membrane homogenates, 120 min at 22° C.
Remember the convention: pIC50 equals -log10 of concentration in molar.

Tested on GABA gated Cl-channel (GABA.A receptor complex), the item N#CC(C(=S)Nc1ccc(C#N)cc1)=C(O)C1CC1 showed pIC50 equal to 5.02

###

# assay system: human GABAA α1β3γ2 (Homo sapiens (Human), UniProt P14867+P18507+P28472)
# Sequence (P14867 28-456, one chain of several): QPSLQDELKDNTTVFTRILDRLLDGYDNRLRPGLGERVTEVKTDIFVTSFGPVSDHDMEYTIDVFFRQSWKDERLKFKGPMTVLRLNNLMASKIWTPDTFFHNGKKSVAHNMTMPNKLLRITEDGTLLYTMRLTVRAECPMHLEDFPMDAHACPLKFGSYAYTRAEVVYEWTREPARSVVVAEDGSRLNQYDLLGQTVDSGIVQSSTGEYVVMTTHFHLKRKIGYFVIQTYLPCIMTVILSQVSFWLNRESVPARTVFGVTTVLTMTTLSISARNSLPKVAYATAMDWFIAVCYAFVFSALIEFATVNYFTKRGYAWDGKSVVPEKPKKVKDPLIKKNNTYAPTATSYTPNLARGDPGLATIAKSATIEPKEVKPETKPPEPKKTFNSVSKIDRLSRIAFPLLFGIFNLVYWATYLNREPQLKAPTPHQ
# experimental protocol: Patch clamp electrophysiology, positive modulation, HEK293 cells expressing GABAA α1β3γ2
# Assay type: cell-based
# details: 10 μM test compound; GABA EC20 current = 100%
Catalogue of GABAA α1β3γ2 normalized percent current readings, one per entry.
Record the value in %, omitting the unit from your answer.

// known answers, use as guide
1) Cc1cc(NC(=S)C(C#N)=C(O)C2CC2)ccc1C#N [Example 6] = 338
2) N#CC(C(=S)Nc1ccc(SC(F)(F)F)cc1)=C(O)C1CC1 [Example 5] = 707
3) N#CC(C(=S)Nc1ccc(S(=O)(=O)C(F)(F)F)cc1)=C(O)C1CC1 [Example 9] = 286

Read the next record carefully.
Query Cc1cc(NC(=S)C(C#N)=C(O)C2CC2)ccc1C(F)(F)F [Example 1] yields GABAA α1β3γ2 normalized percent current of 792

###

# assay system: GABA gated Cl-channel (GABA.A receptor complex)
# experimental protocol: GABAA receptor binding assay ([35S]TBPS radioligand)
# details: 3 nM [35S]TBPS, rat cerebral cortex membrane homogenates, 120 min at 22° C.
Catalogue of pIC50 readings, one per entry.
Remember the convention: pIC50 equals -log10 of concentration in molar.

// known answers, use as guide
1) Cc1cc(NC(=S)C(C#N)=C(O)C2CC2)ccc1[N+](=O)[O-] [Example 3] = 5.22
2) Cc1cc(NC(=S)C(C#N)=C(O)C2CC2)ccc1C#N [Example 6] = 5.10
3) Cc1cc(NC(=S)C(C#N)=C(O)C2CC2)ccc1C(F)(F)F [Example 1] = 5.28

Read the next record carefully.
Query N#CC(C(=S)Nc1ccc([N+](=O)[O-])cc1)=C(O)C1CC1 [Example 4] yields pIC50 of 5.06

###

# assay system: human GABAA α2β3γ2 (Homo sapiens (Human), UniProt P18507+P28472+P47869)
# Sequence (P47869 29-451, one chain of several): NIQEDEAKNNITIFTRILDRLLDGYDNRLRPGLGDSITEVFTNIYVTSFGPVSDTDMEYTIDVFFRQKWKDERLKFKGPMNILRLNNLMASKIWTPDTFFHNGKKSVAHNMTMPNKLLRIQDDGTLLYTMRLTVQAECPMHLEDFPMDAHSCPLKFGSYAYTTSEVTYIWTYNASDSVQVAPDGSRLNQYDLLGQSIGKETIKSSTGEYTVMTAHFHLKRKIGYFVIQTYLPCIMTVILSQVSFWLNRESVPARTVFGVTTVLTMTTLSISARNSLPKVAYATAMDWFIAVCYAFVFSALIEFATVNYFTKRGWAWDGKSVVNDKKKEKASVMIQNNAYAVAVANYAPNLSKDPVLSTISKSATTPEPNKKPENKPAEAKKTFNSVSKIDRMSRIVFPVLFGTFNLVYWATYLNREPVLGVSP
# experimental protocol: Patch clamp electrophysiology, positive modulation, HEK293 cells expressing GABAA α2β3γ2
# Format: cell-based
# details: 10 μM test compound; GABA EC20 current = 100%
# Description: Electrophysiological assays on different subunit combinations of the human GABAA receptor complex. The functional positive modulation activity of the test compounds were investigated by using patch clamp techniques on HEK293 cells stably expressing different subunit combinations of the human GABAA receptor complex. In brief, the peak inward currents in response to the GABA (natural ligand of the GABAA receptors) additions in the presence of increasing concentrations of test compound were measured. […]
Catalogue of GABAA α2β3γ2 normalized percent current readings, one per entry.
Record the value in %, omitting the unit from your answer.

// known answers, use as guide
1) Cc1cc(NC(=S)C(C#N)=C(O)C2CC2)ccc1C(F)(F)F = 614
2) N#CC(C(=S)Nc1ccc(S(=O)(=O)C(F)(F)F)cc1)=C(O)C1CC1 = 259

Query N#CC(C(=S)Nc1ccc(SC(F)(F)F)cc1)=C(O)C1CC1 yields GABAA α2β3γ2 normalized percent current of 453

Query Cc1cc(NC(=S)C(C#N)=C(O)C2CC2)ccc1C#N yields GABAA α2β3γ2 normalized percent current of 286

###

Catalogue of IC50 readings, one per entry.
# assay system: GABA gated Cl-channel (GABA.A receptor complex)
# experimental protocol: GABAA receptor binding assay ([35S]TBPS radioligand)
# details: 3 nM [35S]TBPS, rat cerebral cortex membrane homogenates, 120 min at 22° C.
Record the value in µM, omitting the unit from your answer.

// known answers, use as guide
1. N#CC(C(=S)Nc1ccc(SC(F)(F)F)cc1)=C(O)C1CC1 [Example 5] = 7.7
2. N#CC(C(=S)Nc1ccc([S+]([O-])C(F)(F)F)cc1)=C(O)C1CC1 (stereo not shown) [Example 8] = 10.3
3. Cc1cc(NC(=S)C(C#N)=C(O)C2CC2)ccc1F [Example 2] = 8.3

Query N#CC(C(=S)Nc1ccc(S(=O)(=O)C(F)(F)F)cc1)=C(O)C1CC1 [Example 9] yields IC50 of 5
